Tested on: 168753-222-R-J1-PDC complex spheroid viability
Assay: Anticancer human tumor 168753-222-R-J1-PDC patient-derived bladder carcinoma cell line growth inhibition [CLK]
Details: second compound 3.16 µM; first compound 10 µM; stronger effect = lower value
Provide the reported viability, T/C of each item.
Answers are plain numbers, in %.

Here's what some known entries look like.
Nc1ccn(C2OC(CO)C(O)C2(F)F)c(=O)n1 (stereo not given) + CNC(=O)c1ccc(Nc2nc(OC3CCCC3)c3c(-c4ccc5nc(C)oc5c4)c[nH]c3n2)c(OC)c1	15.5
CC(CO)NC(=O)c1cc(-c2ccc(Cl)cc2)nn(-c2cnn(C)c2)c1=O (stereo not given) + CNC(=O)c1ccc(Nc2nc(OC3CCCC3)c3c(-c4ccc5nc(C)oc5c4)c[nH]c3n2)c(OC)c1	35.2
CC(=O)O[C@H]1C(=O)[C@@]2(C)[C@H]([C@H](OC(=O)c3ccccc3)[C@]3(O)C[C@H](OC(=O)[C@H](O)[C@@H](NC(=O)c4ccccc4)c4ccccc4)C(C)=C1C3(C)C)[C@]1(OC(C)=O)CO[C@@H]1C[C@@H]2O + CN1CCN(c2cc(C(=O)Nc3cc4cc(-c5cnn(C)c5)ccc4cn3)ccn2)CC1	0.14
CC(Nc1ccc2c(c1)OCCn1cc(N3C(=O)OCC3C(F)F)nc1-2)C(N)=O (stereo not given) + CNC(=O)c1ccc(Nc2nc(OC3CCCC3)c3c(-c4ccc5nc(C)oc5c4)c[nH]c3n2)c(OC)c1	3.99
Nc1ccn(C2OC(CO)C(O)C2(F)F)c(=O)n1 (stereo not given) + CN1CCN(c2cc(C(=O)Nc3cc4cc(-c5cnn(C)c5)ccc4cn3)ccn2)CC1	0.1

Hey, quick one: what's viability, T/C for each of these?
1. COC1C=CCC(C)C(C)S(=O)(=O)NC(=O)c2ccc3c(c2)N(CC2CCC21)CC1(CCCc2cc(Cl)ccc21)CO3 (stereo not given) + CNC(=O)c1ccc(Nc2nc(OC3CCCC3)c3c(-c4ccc5nc(C)oc5c4)c[nH]c3n2)c(OC)c1
2. C=C(F)C(=O)N1CCN(c2nc(OCC3CCCN3C)nc3c2CCN(c2cccc4cccc(Cl)c24)C3)CC1CC#N (stereo not given) + CNC(=O)c1ccc(Nc2nc(OC3CCCC3)c3c(-c4ccc5nc(C)oc5c4)c[nH]c3n2)c(OC)c1

7.77
18.1

====

Provide the reported viability, T/C of each item.
Test system: 168753-222-R-J1-PDC complex spheroid viability
Experiment: Anticancer human tumor 168753-222-R-J1-PDC cell line growth inhibition [CLK];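 further: viability measured after seven days of drug exposure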;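 on viability, T/C: luminescence signal used as surrogate for viable cell amount; 100% = DMSO vehicle control wells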
Details: second compound 1 µM; first compound 10 µM; stronger effect = lower value
Give bare numbers, in %.

Here's what some known entries look like.
O=C(c1cc(Cc2n[nH]c(=O)c3ccccc23)ccc1F)N1CCN(C(=O)C2CC2)CC1 + CNC(=O)c1ccc(Nc2nc(OC3CCCC3)c3c(-c4ccc5nc(C)oc5c4)c[nH]c3n2)c(OC)c1	38.4
C=C(F)C(=O)N1CCN(c2nc(OCC3CCCN3C)nc3c2CCN(c2cccc4cccc(Cl)c24)C3)CC1CC#N (stereo not drawn) + CNC(=O)c1ccc(Nc2nc(OC3CCCC3)c3c(-c4ccc5nc(C)oc5c4)c[nH]c3n2)c(OC)c1	31.7
CC(CO)NC(=O)c1cc(-c2ccc(Cl)cc2)nn(-c2cnn(C)c2)c1=O (stereo not drawn) + CNC(=O)c1ccc(Nc2nc(OC3CCCC3)c3c(-c4ccc5nc(C)oc5c4)c[nH]c3n2)c(OC)c1	53.1
COc1ccc([C@@H](O)c2cc(-c3ncnc4cc(N5CCOCC5)ccc34)c(F)cc2Cl)nn1 + CN1CCN(c2cc(C(=O)Nc3cc4cc(-c5cnn(C)c5)ccc4cn3)ccn2)CC1	0.13
COC1C=CCC(C)C(C)S(=O)(=O)NC(=O)c2ccc3c(c2)N(CC2CCC21)CC1(CCCc2cc(Cl)ccc21)CO3 (stereo not drawn) + CN1CCN(c2cc(C(=O)Nc3cc4cc(-c5cnn(C)c5)ccc4cn3)ccn2)CC1	1.79

Hey, quick one: what's viability, T/C for each of these?
1. Nc1ccccc1NC(=O)c1ccc(CNC(=O)OCc2cccnc2)cc1 + CN1CCN(c2cc(C(=O)Nc3cc4cc(-c5cnn(C)c5)ccc4cn3)ccn2)CC1
2. COc1ccc([C@@H](O)c2cc(-c3ncnc4cc(N5CCOCC5)ccc34)c(F)cc2Cl)nn1 + CNC(=O)c1ccc(Nc2nc(OC3CCCC3)c3c(-c4ccc5nc(C)oc5c4)c[nH]c3n2)c(OC)c1

1. 0.89
2. 13.5

Which viability, T/C value belongs to CC1(C)CCC(CN2CCN(c3ccc(C(=O)NS(=O)(=O)c4ccc(NCC5CCOCC5)c([N+](=O)[O-])c4)c(Oc4cnc5[nH]ccc5c4)c3)CC2)=C(c2ccc(Cl)cc2)C1 + CN1CCN(c2cc(C(=O)Nc3cc4cc(-c5cnn(C)c5)ccc4cn3)ccn2)CC1 ?
1.27

====

Test system: 168753-222-R-J1-PDC complex spheroid viability
Assay: Anticancer human tumor 168753-222-R-J1-PDC cell line growth inhibition [CLK];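 further: viability measured after seven days of drug exposure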
Settings: curve of first compound; second compound 3.16 µM
pIC50: −log10 of the molar value.
recorded-metric: pIC50

Here's what some known entries look like.
C=C(F)C(=O)N1CCN(c2nc(OCC3CCCN3C)nc3c2CCN(c2cccc4cccc(Cl)c24)C3)CC1CC#N (stereo not given) + CN1CCN(c2cc(C(=O)Nc3cc4cc(-c5cnn(C)c5)ccc4cn3)ccn2)CC1	> 7.50
CC(C)CC(NC(=O)C(Cc1ccccc1)NC(=O)c1cnccn1)B(O)O (stereo not given) + CN1CCN(c2cc(C(=O)Nc3cc4cc(-c5cnn(C)c5)ccc4cn3)ccn2)CC1	> 9.02
Nc1ccn(C2OC(CO)C(O)C2(F)F)c(=O)n1 (stereo not given) + CN1CCN(c2cc(C(=O)Nc3cc4cc(-c5cnn(C)c5)ccc4cn3)ccn2)CC1	> 7.50
CCN1CCN(Cc2ccc(Nc3ncc(F)c(-c4cc(F)c5nc(C)n(C(C)C)c5c4)n3)nc2)CC1 + CN1CCN(c2cc(C(=O)Nc3cc4cc(-c5cnn(C)c5)ccc4cn3)ccn2)CC1	> 8.50
Nc1ccn(C2OC(CO)C(O)C2(F)F)c(=O)n1 (stereo not given) + CNC(=O)c1ccc(Nc2nc(OC3CCCC3)c3c(-c4ccc5nc(C)oc5c4)c[nH]c3n2)c(OC)c1	> 7.50
COc1c(OCCCN2CCOCC2)ccc2c3n(c(=NC(=O)c4cnc(N)nc4)nc12)CCN3 + CNC(=O)c1ccc(Nc2nc(OC3CCCC3)c3c(-c4ccc5nc(C)oc5c4)c[nH]c3n2)c(OC)c1	> 8.50
C=CC(=O)N1CCN(c2nc(=O)n(-c3c(C)ccnc3C(C)C)c3nc(-c4c(O)cccc4F)c(F)cc23)C(C)C1 (stereo not given) + CNC(=O)c1ccc(Nc2nc(OC3CCCC3)c3c(-c4ccc5nc(C)oc5c4)c[nH]c3n2)c(OC)c1	> 7.50
CC(=O)O[C@H]1C(=O)[C@@]2(C)[C@H]([C@H](OC(=O)c3ccccc3)[C@]3(O)C[C@H](OC(=O)[C@H](O)[C@@H](NC(=O)c4ccccc4)c4ccccc4)C(C)=C1C3(C)C)[C@]1(OC(C)=O)CO[C@@H]1C[C@@H]2O + CN1CCN(c2cc(C(=O)Nc3cc4cc(-c5cnn(C)c5)ccc4cn3)ccn2)CC1	> 7.50

Hey, quick one: what's pIC50 for each of these?
1. NC(=O)C(=Cn1cnc(-c2cc(C(F)(F)F)cc(C(F)(F)F)c2)n1)c1cncnc1 + CNC(=O)c1ccc(Nc2nc(OC3CCCC3)c3c(-c4ccc5nc(C)oc5c4)c[nH]c3n2)c(OC)c1
2. O=C(c1cc(Cc2n[nH]c(=O)c3ccccc23)ccc1F)N1CCN(C(=O)C2CC2)CC1 + CNC(=O)c1ccc(Nc2nc(OC3CCCC3)c3c(-c4ccc5nc(C)oc5c4)c[nH]c3n2)c(OC)c1
3. CC1(C)CCC(CN2CCN(c3ccc(C(=O)NS(=O)(=O)c4ccc(NCC5CCOCC5)c([N+](=O)[O-])c4)c(Oc4cnc5[nH]ccc5c4)c3)CC2)=C(c2ccc(Cl)cc2)C1 + CNC(=O)c1ccc(Nc2nc(OC3CCCC3)c3c(-c4ccc5nc(C)oc5c4)c[nH]c3n2)c(OC)c1
4. CC(Nc1ccc2c(c1)OCCn1cc(N3C(=O)OCC3C(F)F)nc1-2)C(N)=O (stereo not given) + CNC(=O)c1ccc(Nc2nc(OC3CCCC3)c3c(-c4ccc5nc(C)oc5c4)c[nH]c3n2)c(OC)c1

> 8.02
> 7.50
> 7.50
> 7.50

Hey, quick one: what's pIC50 for each of these?
1. C=CC(=O)Nc1cc(Nc2nccc(-c3cn(C)c4ccccc34)n2)c(OC)cc1N(C)CCN(C)C + CN1CCN(c2cc(C(=O)Nc3cc4cc(-c5cnn(C)c5)ccc4cn3)ccn2)CC1
2. Nc1ccccc1NC(=O)c1ccc(CNC(=O)OCc2cccnc2)cc1 + CN1CCN(c2cc(C(=O)Nc3cc4cc(-c5cnn(C)c5)ccc4cn3)ccn2)CC1
3. C#Cc1c(F)ccc2cc(O)cc(-c3ncc4c(N5CC6CCC(C5)N6)nc(OCC56CCCN5CC(F)C6)nc4c3F)c12 (stereo not given) + CN1CCN(c2cc(C(=O)Nc3cc4cc(-c5cnn(C)c5)ccc4cn3)ccn2)CC1

["> 9.02", "> 7.50", "> 7.50"]
